- Experimental Protocol: OD615 S. cerevisiae growth inhibition, permissive medium, pilot counter-assay, permissive growth control for S. cerevisiae lifespan shortening project (AID 705)
- Run Conditions: OD615, 24 h, at 10 µM, hits give high values
Readout Kind: growth inhibition (%)
Unit % implied. Number only.

Any idea what its growth inhibition is? The compound is CCOc1ccc(/C=C\C(C)=N\O)cc1
-0.67

Which growth inhibition reading was recorded for the compound O=C(Cn1c(S(=O)(=O)Cc2ccccc2)nc2ccccc21)N1CCCCC1 ?
-5.32

// query growth inhibition value for entry Cc1nc(Cc2nnc(SCc3nc(N)nc(Nc4ccccc4C)n3)o2)cs1
-3.24

Requested field: growth inhibition. Item: c1ccc2c(c1)ncc1cccn12
-16.6

Sample C=CCn1c(NCc2cc(C)ccc2O)nc2ccccc21 — what was its growth inhibition?
-18.2

So what's the measured growth inhibition for this one? NS(=O)(=O)c1ccc(S(=O)(=O)NCCc2ccccc2)cc1
-4.76

Which growth inhibition value is on record for Cc1cc(C)c(S(=O)(=O)Nc2nnc(C)s2)c(C)c1 ?
-20.6

I'd like to know its growth inhibition. The compound in question is CC(NC(=O)Cc1ccccc1)c1nc2ccccc2[nH]1 (centres undefined)
-3.99

# lookup: growth inhibition of COc1ccccc1S(=O)(=O)Cc1ccc(C(=O)NCCN(C)C)o1
-6.73

Returns the measured growth inhibition for the input compound. Input: Cc1ccc(C)c(N2CCN(C(=O)CCc3nc4ccccc4[nH]3)CC2)c1
6.2

Name the reported growth inhibition value associated with the compound CCCCN(C)CCC(=O)Nc1ccc(OC)cc1OC
-0.81

For the compound shown here, Cc1ccc(CN2CCNC(=O)C2CC(=O)O)o1 (centres undefined) , give the reported growth inhibition.
-8.29

Please report the recorded growth inhibition for CCOc1ccc(C(=O)Nn2cnnc2)cc1 .
-3.16

Dear colleague, I am looking for the recorded growth inhibition of the following compound: COc1cccc(-c2cc(N)nn2C(=O)Nc2ccc(Cl)cc2)c1
-15.4

Quick check: growth inhibition of CCOC(=O)C1CCCCN1Cc1cc(Cl)ccc1O (centres undefined) ?
-3.16

Which value of growth inhibition has been reported for Cc1ccc2oc3c(c(=O)c2c1)C(c1ccc(F)cc1)N(CCCN1CCOCC1)C3=O (centres undefined) in the records?
-3.52

Param item = COc1cc(NC(=O)Cc2ccccc2)cc(OC)c1 ; retrieve measured growth inhibition.
-1.66

// growth inhibition lookup, key: CC(C)C(NS(=O)(=O)c1ccc2c(c1)oc(=O)n2C)C(=O)N1CCN(c2ccccc2F)CC1 (centres undefined)
-11

// query growth inhibition value for entry Cc1cccc(C)c1Nc1nc2ccccc2o1
-7.32

Name the recorded growth inhibition for CN(C)S(=O)(=O)c1ccc(C(=O)Nc2nc(-c3cccs3)cs2)cc1 .
-5.6

Look up growth inhibition: CCOC(=O)N1CCC(NC(=O)CN2C(=O)CSc3nc(C)cc(C)c32)CC1
-8.91

Field request: growth inhibition | item: CCNC(=O)CN(c1ccc(CC)cc1)S(C)(=O)=O
-5

Recorded growth inhibition for CCOC(=O)c1ccc(NC(=O)C2CCCN(S(=O)(=O)c3cnc[nH]3)C2)cc1 (centres undefined) , please?
2.33

Fill in the blank: the reported growth inhibition of CS(=O)(=O)N(CC(=O)NCc1ccco1)c1ccc(Cl)c(C(F)(F)F)c1 is ____.
-19
